Collected EC50 values appear next to each entry.
# Assayed system: T1, Human TNFR2-His (Sino 10417-H08H) (human, UniProt P20333 23-257)
# T1 construct: Bought protein; also called recombinant human TNFR2 protein; not shown: His tag
# T1 sequence (looked up): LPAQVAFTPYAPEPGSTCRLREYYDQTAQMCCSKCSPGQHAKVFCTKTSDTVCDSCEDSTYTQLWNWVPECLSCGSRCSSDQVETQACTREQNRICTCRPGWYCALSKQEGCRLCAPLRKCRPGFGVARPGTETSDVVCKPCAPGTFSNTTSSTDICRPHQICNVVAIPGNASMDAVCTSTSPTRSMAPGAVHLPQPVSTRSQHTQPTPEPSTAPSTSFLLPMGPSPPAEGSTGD
# Protocol description: ELISA, human TNFR2-His coated
# Description: The test humanized antibody against TNFR2 (as described in Example 1, the antibody was comprised of variable regions linked to IgG-Fc; the WT chimeric antibody also adopted the IgG-Fc structure) was subjected to 3.33-fold gradient dilution, loaded with 100 μl/well, and incubated with shaking at room temperature for 1.5 hours. […] A stop solution was added to stop the reaction, and then a microplate reader (MD 13) was used to read the absorbance value. […]
Parameter: EC50 (µg/mL)

Binder: 219-Hu1 (antibody, V domains shown, also called VH3 + VL5) VH: QVQLVQSGAEVKKPGASVKVSCKASGYSFTNYWMNWVRQAPGQRLEWMGMIHPSDTETRLNQNFKDRVTITRDTSASTAYMELSSLRSEDTAVYYCARGEGLGAARSVSMDYWGQGTLVTVSS VL: DIQMTQSPSSLSASVGDRVTITCRASQDISNYLNWYQQKPDGTVKLLIYYTAILHSGVPSRFSGSGSGTDYSLTISSLQPEDFATYFCQQGNTLPWTFGQGTKVEIK
Parameter: EC50
Unit annotation: µg/mL
Readout number: 0.0213
//
Binder: 219-Hu4 (antibody, V domains shown, also called VH6 + VL5) VH: QVQLVQSGAEVKKPGSSVKVSCKASGYSFTNYWMNWVKQAPGQGLEWIGMIHPSDTETRLNQNFKDKATLTVDKSTSTAYMELSSLRSEDTAVYYCARGEGLGAARSVSMDYWGQGTLVTVSS VL: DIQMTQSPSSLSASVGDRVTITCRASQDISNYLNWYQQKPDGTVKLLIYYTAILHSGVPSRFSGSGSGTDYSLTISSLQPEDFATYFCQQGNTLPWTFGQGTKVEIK
Parameter: EC50
Unit annotation: µg/mL
Readout number: 0.0168
//
Binder: 224-Hu3 (antibody, V domains shown, Humanized form of #224; also called VH9 + VL8) VH: QVQLVQSGSELKKPGASVKVSCKASGFNNKDIYMHWVRQAPGQGLEWMGRIDPATGNTKHDPKFQDKAVLSSDTSVSTAYLQISSLKAEDTAVYYCARSPYGDFGAMDYWGQGTLVTVSS VL: DIQMTQSPSSLSASVGDRVTITCTASSSVSSNYLHWYQQKPGKAPKLLIYSTSNLPSGVPSRFSGSGSGTDFTLTISSLQAEDAATYYCHQYHRSPWTFGQGTKVEIK
Parameter: EC50
Unit annotation: µg/mL
Readout number: 0.0122
